Source listed as PubChem BioAssay AID1918948.

Test system: K-562 leukemia growth, % test/control
assayOverview: Anticancer human tumor K-562 cell line growth inhibition;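 also: spheroids exposed to compounds for 7 days; 100% = DMSO vehicle wells and lower values mean fewer viable cells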
protocolConditions: second compound 3.16 µM; first compound 0.000949 µM; stronger effect = lower value; spheroids with HUVEC and MSC
recordedMetric: viability, T/C (%)

>>> readoutnumber("Nc1ccn(C2OC(CO)C(O)C2(F)F)c(=O)n1 (stereo unspecified) + NC1CCC(NC2CC2c2ccccc2)CC1")
20.3
>>> readoutnumber("Nc1ncn(C2CC(O)C(CO)S2)c(=O)n1 (stereo unspecified) + NC1CC1c1ccc(-c2cccc(O)c2)cc1")
98.5
>>> readoutnumber("CCc1c2c(nc3ccc(O)cc13)-c1cc3c(c(=O)n1C2)COC(=O)[C@]3(O)CC + NC1CC1c1ccc(-c2cccc(O)c2)cc1")
7.47
>>> readoutnumber("Nc1ccn(C2OC(CO)C(O)C2(F)F)c(=O)n1 (stereo unspecified) + NC1CC1c1ccc(-c2cccc(O)c2)cc1")
103
>>> readoutnumber("Nc1ncn(C2CC(O)C(CO)S2)c(=O)n1 (stereo unspecified) + NC1CCC(NC2CC2c2ccccc2)CC1")
108
>>> readoutnumber("CCc1c2c(nc3ccc(O)cc13)-c1cc3c(c(=O)n1C2)COC(=O)[C@]3(O)CC + NC1CCC(NC2CC2c2ccccc2)CC1")
5.35
